Measured pIC50 values are reported for all entries that follow.
Assay: Inhibition of HCV BB7 NS5B polymerase after 15 mins
Design: species or system Hepacivirus hominis
// field semantics: pIC50 = negative decimal log of concentration (mol/L)

{"columns": ["Molecule", "Endpoint", "Result"],
 "data": [
  ["CCCC1(CC(=O)O)OCCc2c1[nH]c1c(C)c(C(=O)NCc3ccc4c(c3)OCO4)cc(C#N)c21 (racemic)", "pIC50", 6.52]
]}

Query :: Name the recorded pIC50 for CCCC1(CC(=O)O)OCCc2c1[nH]c1c(C)c(O)cc(C#N)c21 (racemic) .
Result :: 6.70

Query :: Name the recorded pIC50 for `CCC[C@]1(CC(=O)O)OCCc2c1[nH]c1c(C)c(OCc3cc(C)on3)cc(C#N)c21` .
Result :: 8.10

Query :: Name the recorded pIC50 for CCCC1(CC(=O)O)OCCc2c1[nH]c1c(C)c(OC(C)C)cc(C#N)c21 (racemic) .
Result :: 6.66

Query :: Name the recorded pIC50 for CCCC1(CC(=O)O)OCCc2c1[nH]c1c(C)c(C(=O)NCCc3ccccn3)cc(C#N)c21 (racemic) .
Result :: 6.19

Query :: Name the recorded pIC50 for `CCC[C@]1(CC(=O)O)OCCc2c1[nH]c1c(C)ccc(C#N)c21` .
Result :: 6.40

Query :: Name the recorded pIC50 for CCCC1(CC(=O)O)OCCc2c1[nH]c1c(C)c(OC)cc(C#N)c21 (racemic) .
Result :: 6.89

Query :: Name the recorded pIC50 for CCCC1(CC(=O)O)OCCc2c1[nH]c1c(C)c(OCCOC)cc(C#N)c21 (racemic) .
Result :: 7.05

====

Assay: Inhibition of HCV BK NS5B polymerase after 15 mins
Design: species or system Hepatitis C virus (isolate BK)
Measured IC50 values are reported for all entries that follow.
// note: answer is a bare numeric in nM

{"columns": ["Compound", "Measurement units", "IC50"],
 "data": [
  ["CCCOc1cc(C#N)c2c3c([nH]c2c1C)C(CCC)(CC(=O)O)OCC3 (racemic)", "nM", 70],
  ["CCCC1(CC(=O)O)OCCc2c1[nH]c1c(C)c(OCCN3CCCC3)cc(C#N)c21 (racemic)", "nM", 1100],
  ["CCCC1(CC(=O)O)OCCc2c1[nH]c1c(C)c(C(=O)NCCc3ccccn3)cc(C#N)c21 (racemic)", "nM", 1200],
  ["CCC[C@]1(CC(=O)O)OCCc2c1[nH]c1c(C)c(OCc3cc(C)on3)cc(C#N)c21", "nM", 6],
  ["CCCC1(CC(=O)O)OCCc2c1[nH]c1c(C)c(C(=O)NCCc3ncc[nH]3)cc(C#N)c21 (racemic)", "nM", 860],
  ["CCCC1(CC(=O)O)OCCc2c1[nH]c1c(C)c(OC(C)C)cc(C#N)c21 (racemic)", "nM", 480]
]}

Query :: Name the recorded IC50 for CCCC1(CC(=O)O)OCCc2c1[nH]c1c(C)c(OCC)cc(C#N)c21 (racemic) .
Result :: 110

Query :: Name the recorded IC50 for CCCC1(CC(=O)O)OCCc2c1[nH]c1c(C)c(OCc3cnccn3)cc(C#N)c21 (racemic) .
Result :: 19

Query :: Name the recorded IC50 for CCCC1(CC(=O)O)OCCc2c1[nH]c1c(C)c(C(=O)NCc3ccccc3)cc(C#N)c21 (racemic) .
Result :: 980

From: ChEMBL document CHEMBL1777733
